Experiment: NCI Yeast Anticancer Drug Screen. Data for the mlh1 rad18 strain (AID 175)
Conditions: S. cerevisiae mlh1 rad18 strain growth inhibition; at 50.0 µM; stronger effect = higher value
About 79,000 compounds went through this panel and 15% of them were active in at least one assay; those are over-represented in the sample as a whole.
readout type: growth inhibition (%)
Give the value, in units of %, as a plain number.

# annotated cases, reported growth inhibition shown
Consider the compound shown here: Cc1nc(C)c(C(=O)NNC(N)=S)cc1C(=O)NNC(N)=S What is its recorded growth inhibition? -8.9

Consider the compound shown here: COc1nc2ccccc2c(=O)[nH]1 What is its recorded growth inhibition? 6.5

Continuing:
Consider the compound shown here: CCCNCC(O)c1cc(C(F)(F)F)nc2c(C(F)(F)F)cccc12 (configuration not stated) What is its recorded growth inhibition? 19.1

Consider the compound shown here: C/C(O)=C(\N=Nc1ccccc1)C(N)=O What is its recorded growth inhibition? -3.45

Consider the compound shown here: O=[N+]([O-])c1ccc(-c2cn(-c3ccc(Cl)cc3)cn2)cc1 What is its recorded growth inhibition? -5.7

Consider the compound shown here: O=[N+]([O-])c1ccc(N=Nc2ccc(O)c3c(O)cc(S(=O)(=O)O)cc23)cc1S(=O)(=O)O What is its recorded growth inhibition? 50.1

Consider the compound shown here: O=[N+]([O-])c1ccc(-c2ccc([N+](=O)[O-])cc2)cc1 What is its recorded growth inhibition? -13.3

Consider the compound shown here: Nc1ccc(CCCCc2nc(N)nc(N)c2-c2ccc(Cl)c(Cl)c2)cc1 What is its recorded growth inhibition? 60.5

Consider the compound shown here: NC(=O)C(F)(F)C(F)(F)C(N)=O What is its recorded growth inhibition? -1.9

Consider the compound shown here: O=C1CCCc2c(O)ccc(O)c21 What is its recorded growth inhibition? 28.4

Consider the compound shown here: Cc1ccccc1NC(=O)CC(=O)n1nc(-c2ccccc2)c(N=Nc2ccc([N+](=O)[O-])cc2)c1-c1ccccc1 What is its recorded growth inhibition? 42.9

Consider the compound shown here: CC(=O)Nc1ccc(S(=O)(=O)c2ccc(NC(C)=O)s2)s1 What is its recorded growth inhibition? -18.9

Consider the compound shown here: CC1OC(Cc2ccccc2)OC1C (configuration not stated) What is its recorded growth inhibition? 9.9

Consider the compound shown here: CN1[C@@H]2C[C@@H](OC(=O)[C@H](CO)c3ccccc3)C[C@H]1[C@@H]1O[C@@H]12 What is its recorded growth inhibition? 5.6

Consider the compound shown here: C=C1C(=O)OC2C1C(OC(=O)/C(=C/CO)CO)CC1(CO1)C1CC=C(C)C21 (configuration not stated) What is its recorded growth inhibition? 9.6

Consider the compound shown here: Cc1ncc(N)nc1C What is its recorded growth inhibition? -43

Consider the compound shown here: CC(=S)N=Cc1c(C)[nH]n(-c2ccccc2)c1=O What is its recorded growth inhibition? -31.9

Consider the compound shown here: C=CCSc1nc2ccc(N3C(=O)CCC3=O)cc2s1 What is its recorded growth inhibition? 4

Consider the compound shown here: O=S(=O)(Nc1nccs1)c1ccc(NCc2c3ccccc3nc3ccccc23)cc1 What is its recorded growth inhibition? 49.5

Consider the compound shown here: NC(CC(=O)O)C(=O)OCc1cccc(N=Nc2ccccc2)c1 (configuration not stated) What is its recorded growth inhibition? 4.3
